System: HCT-15 colon
assayProtocol: NCI tumour cell line growth inhibition, 48 h
quantityMeasured: TGI

Consider the following illustrative entries.
INSERT INTO assay_data (molecule, result) VALUES
  ('C=CC(=O)NCCSCCCOC1(C(=O)O)CC(O)C(NC(C)=O)C(C(O)C(O)CO)O1 (configuration not stated)', '> 100 µM'),
  ('C(/C=C/c1ccccc1)=Nc1ccc2c(c1)Cc1ccccc1-2', '> 100 µM'),
  ('CCN(CC)C(=O)Cn1c(-c2ccccc2)cc2ccccc21', '> 100 µM'),
  ('Cc1ccc2c(=O)cc(Cc3cccs3)[nH]c2n1', '> 100 µM'),
  ('CCCCCC1CC=CC(=O)O1 (configuration not stated)', '21.9 µM');

Query :: Sample Nc1ccccc1NC(=O)c1ccc(CNc2nccc(-c3cccnc3)n2)cc1 — what was its TGI?
Result :: > 44.1 µM

Query :: Also, CCCCCCCCCCCCCCCCCCNc1ccn(C2OC(COP(=O)(O)OCC3OC(n4cc(C)c(=O)[nH]c4=O)CC3F)C(O)C2O)c(=O)n1 (configuration not stated) please.
Result :: 15.9 µM

Query :: Also, NC(=S)N/N=C/c1nccc2ccccc12 please.
Result :: > 100 µM

Query :: Also, Cn1cc(C2=C(c3ccccc3[N+](=O)[O-])C(=O)NC2=O)c2ccccc21 please.
Result :: > 25 µM

Query :: Also, N.N.NCCCCCN.O=C([O-])CCl.O=C([O-])CCl.O=C([O-])CCl.O=C([O-])CCl.[Pt+4].[Pt+4] please.
Result :: > 100 µM

Query :: Also, CCCCCCCCOCC(O)COC(C)C (configuration not stated) please.
Result :: > 100 µM

Query :: Also, CCCCNc1nc2ccccc2c2c1ncn2CC(C)C please.
Result :: > 100 µM

Query :: Also, NC1=CC(=O)c2cccnc2C1=O please.
Result :: 10.2 µM

Query :: Also, CN(C)c1ccc(/C=C/c2ccnc3c(O)cccc23)cc1 please.
Result :: > 100 µM

Query :: Also, Cc1cc(Cl)cc2c(N=Nc3ccc(S(N)(=O)=O)cc3)c(O)[nH]c12 please.
Result :: > 25 µM

Query :: Also, c1ccc(N2N=C(c3cccc(Nc4ccncc4)c3)CC2c2ccc3c(c2)OCO3)cc1 (configuration not stated) please.
Result :: 3.38 µM

Query :: Also, CCCC(=O)NC(Nc1cc(C)ccn1)(C(=O)OCC)C(F)(F)F (configuration not stated) please.
Result :: > 100 µM

Query :: Also, Cn1c(NNc2ccccc2)cc(=O)[nH]c1=O please.
Result :: > 100 µM

Query :: Also, O=C1c2cccnc2S(=O)(=O)N1c1ccc(Oc2ccccc2)cc1 please.
Result :: > 100 µM

Query :: Also, COc1cc2c(cc1C[C@H]1[C@@H]3C[C@H]4c5c(c6ccccc6n5C)C[C@@H]([C@@H]3CO[C@]1(C)OC(C)=O)N4C)c1c(n2C)C2C[C@H]3C(C(C)=O)=COC[C@H]3[C@H](C1)N2C please.
Result :: 6.25 µM

Data origin: PubChem BioAssay (NCI)
